MIC overview
Test system: Haemophilus influenzae
test-details: Antibacterial activity against ampicillin-resistant Haemophilus influenzae 3300 by broth microdilution method
Format: functional
Numbers only; they are read as µg/mL.

Study these solved cases before continuing.
| compound | MIC / µg/mL |
| --- | --- |
| CC[C@H]1OC(=O)[C@H](C)[C@@H](OC(=O)NCc2ccc(C)cc2)[C@H](C)[C@@H](O[C@@H]2O[C@H](C)C[C@H](N(C)C)[C@H]2O)[C@](C)(OC)C[C@@H](C)C(=O)[C@@H](C)[C@@H](OC)[C@]1(C)O | 4 |
| CC[C@H]1OC(=O)[C@H](C)[C@@H](OC(=O)NCCc2ccc(OC)c(OC)c2)[C@H](C)[C@@H](O[C@@H]2O[C@H](C)C[C@H](N(C)C)[C@H]2O)[C@](C)(OC)C[C@@H](C)C(=O)[C@@H](C)[C@@H](OC)[C@]1(C)O | 32 |
| CC[C@H]1OC(=O)[C@H](C)[C@@H](OC(=O)NCCCO)[C@H](C)[C@@H](O[C@@H]2O[C@H](C)C[C@H](N(C)C)[C@H]2O)[C@](C)(OC)C[C@@H](C)C(=O)[C@@H](C)[C@@H](OC)[C@]1(C)O | 32 |

Query: Fill in the blank: the reported MIC of CC[C@H]1OC(=O)[C@H](C)[C@@H](OC(=O)NCCc2ccccc2Br)[C@H](C)[C@@H](O[C@@H]2O[C@H](C)C[C@H](N(C)C)[C@H]2O)[C@](C)(OC)C[C@@H](C)C(=O)[C@@H](C)[C@@H](OC)[C@]1(C)O is ____.
Response: 4
